procedure_summary: Drug concentration in mouse plasma at 30 mg/kg, po measured for 2 hr
Type: ADME, organism-based
observed_property: concentration at 2 h (nM)
# output: bare number, implied unit nM

Give the reported value of concentration at 2 h for this record: "Cc1cc(C)c(S(=O)(=O)N(CCc2cccc(Br)c2)Cc2ccc(-c3cccc(S(C)(=O)=O)c3)cc2)c(C)c1"
6

* * *

procedure_summary: Cmax in mouse colon at 10 mg/kg, po
Assay type: ADME, organism-based
Design: dose 10 mg/kg, route po
observed_property: Cmax (µM)
Field: numeric (µM). Do not append units.

Determine from records and report Cmax for Cc1cc(Nc2cc3ncccc3c(NC3C[C@H]4CC[C@@H](C3)N4CCC#N)n2)n[nH]1 (some centres not stated)
9.17

* * *

procedure_summary: AUC in mouse at 5 mg/kg, po
Format: ADME, organism-based
Parameters: dose 5 mg/kg, route po
condition: in vivo
observed_property: AUC (ng·h/mL)
Please give a number only; it is taken to be in ng·h/mL.

# return recorded AUC for input CO[C@@H]1CC[C@@]2(C)[C@H](CC(OS(=O)(=O)[O-])[C@@H]3[C@@H]2CC[C@]2(C)[C@@H]([C@H](C)CCc4nnn[nH]4)CC[C@@H]32)C1.[Na+] (stereo partly specified)
4840

* * *

Form field: EC50 (one value per entry).
study_system: G-protein coupled bile acid receptor 1 (Mus musculus, UniProt Q80SS6)
Sequence (Q80SS6 whole entry): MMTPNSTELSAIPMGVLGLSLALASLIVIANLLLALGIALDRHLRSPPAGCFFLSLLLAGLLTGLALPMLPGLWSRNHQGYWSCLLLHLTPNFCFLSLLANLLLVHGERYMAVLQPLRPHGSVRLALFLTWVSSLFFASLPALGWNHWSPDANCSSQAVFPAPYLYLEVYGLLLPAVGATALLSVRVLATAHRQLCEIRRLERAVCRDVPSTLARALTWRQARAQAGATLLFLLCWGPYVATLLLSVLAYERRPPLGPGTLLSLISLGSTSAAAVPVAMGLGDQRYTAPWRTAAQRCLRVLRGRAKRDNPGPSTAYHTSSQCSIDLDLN
procedure_summary: Inhibition of mouse TGR5
Numbers only; they are read as nM.

INSERT INTO measurements (test_smiles, assay_value) VALUES
  ('CO[C@@H]1C[C@@H]2C[C@H](O)CC[C@]2(C)[C@H]2CC[C@]3(C)[C@@H]([C@H](C)CCC(=O)N(C)C[C@H](O)[C@@H](O)[C@H](O)[C@H](O)CO)CC[C@H]3[C@H]12', 62.3);

Pending compound:
Write down EC50 measured for item "CC#CCn1c(N2CCC[C@H](NC(=O)CCOCCOCCOCCOCCOCCOCCN(C)C(=O)CCc3cc(Cl)c(Oc4ccncc4C(=O)N4CCN(C5CC5)c5ccccc54)cc3Cl)C2)nc2c1c(=O)n(Cc1nc(C)c3ccccc3n1)c(=O)n2C"
17

* * *

procedure_summary: Efflux ratio of apparent permeability in human Caco-2 cells
Format: ADME, cell-based
observed_property: efflux ratio
Just the number, please, no unit after it.

Provide measured efflux ratio value, entry: Cc1cc(Nc2cc3ncccc3c(NC3C[C@H]4CC[C@@H](C3)N4CCC#N)n2)n[nH]1 (stereo partly specified)
32.5

* * *

procedure_summary: Apparent permeability across apical to basolateral side in human Caco-2 cells
Format: ADME, cell-based
observed_property: Papp A→B (×10⁻⁶ cm/s)
Respond numerically; units are ×10⁻⁶ cm/s and should not be typed.

INSERT INTO results (molecule, observed_property, assay_value) VALUES
  ('CN(CC[N+](C)(C)C)C(=O)CCc1cc(Cl)c(Oc2ccsc2C(=O)N2CCN(C3CC3)c3ccccc32)cc1Cl.O=C([O-])C(F)(F)F', 'Papp A→B', 0.06);

Turning now to a further molecule:
Return Papp A→B (reported value) for this molecule: CO[C@@H]1CC[C@@]2(C)[C@H](CC(OS(=O)(=O)[O-])[C@@H]3[C@@H]2CC[C@]2(C)[C@@H]([C@H](C)CCc4nnn[nH]4)CC[C@@H]32)C1.[Na+] (some centres not stated)
0.4

* * *

procedure_summary: Drug recovery in feces of rats at 20 mg, po
Type: ADME
condition: rat, faeces, read-out: Drug recovery
observed_property: dose excreted (%)
Give your result in % as a bare value.

Tell me dose excreted reported for "CCCCC1(CCCC)CS(=O)(=O)c2ccc(N(C)C)cc2[C@@H](c2ccc(OCc3ccc(C[N+]45CCN(CC4)CC5)cc3)cc2)[C@H]1O"
94

* * *

procedure_summary: Cmax in mouse colon content at 10 mg/kg, po
Format: ADME, organism-based
Parameters: dose 10 mg/kg, route po
observed_property: Cmax
Please answer using a numeric value trailed by its unit.

Identify Cmax associated with the compound Cc1cccc(Oc2cc(Oc3cccc(C)n3)cc(Oc3cccc(C)n3)c2)n1 [AMELENODOR]
1e+07 ng/g

Origin of measurements: ChEMBL document CHEMBL5257060
